# Tested on: redroot pigweed (Amaranthus retroflexus, AMARE)
# assay-remarks: Pre-emerge herbicidal activity, greenhouse screen, AMARE
# Type: in vivo
# reported-conditions: 63 g ai/ha, rating 0-100 (0 no damage, 100 complete death), 14 days after application
metric: Pre-emerge Herbicidal Activity AMARE
Answer with a number only.

Query: Suppose we examine the compound Cn1c(C(F)(F)F)cc(=O)n(-c2ccc(Cl)c3nc(C(C)(C)C)oc23)c1=S ; what Pre-emerge Herbicidal Activity AMARE value has been reported?
Result: 100

Query: Another compound: Cn1c(C(F)(F)F)cc(=O)n(-c2c(F)cc(Cl)c3ncoc23)c1=S
Result: 100

Query: Another compound to check: Cn1c(C(F)(F)F)cc(=O)n(-c2c(F)cc(Cl)c3nc(C(C)(C)C)oc23)c1=S
Result: 100

Query: Now consider Cc1nc2c(Cl)cc(F)c(-n3c(=O)cc(C(F)(F)F)n(C)c3=S)c2o1 and answer again.
Result: 100

Query: Follow-up item: Cc1cc2c(-n3c(=O)cc(C(F)(F)F)n(C)c3=S)c(F)cc(Cl)c2o1
Result: 100

Query: Same question for Cn1c(C(F)(F)F)cc(=O)n(-c2c(F)ccc3nc(C(C)(C)C)oc23)c1=S please.
Result: 100

---

# System: common ragweed (Ambrosia artemisiifolia L., AMBEL)
# assay-remarks: Post-emerge herbicidal activity, greenhouse screen, AMBEL
# Format: in vivo
# reported-conditions: 250 g ai/ha, rating 0-100 (0 no damage, 100 complete death), 14 days after application
Hi there, I'd appreciate the recorded Post-emerge Herbicidal Activity AMBEL for every entry that follows.
Output: the number by itself.

Query: Entry Cn1c(C(F)(F)F)cc(=O)n(-c2c(F)cc(Cl)c3ncoc23)c1=S [Compound 1-1] : reported Post-emerge Herbicidal Activity AMBEL = ?
Result: 100

Query: What would you report for Cn1c(C(F)(F)F)cc(=O)n(-c2c(F)cc(Cl)c3nc(C(C)(C)C)oc23)c1=S [Compound 1-3] ?
Result: 100

Query: What about this molecule? Cc1nc2c(Cl)cc(F)c(-n3c(=O)cc(C(F)(F)F)n(C)c3=S)c2o1 [Compound 1-2]
Result: 100

Query: Next entry: Cn1c(C(F)(F)F)cc(=O)n(-c2c(F)ccc3nc(C(C)(C)C)oc23)c1=S [Compound 1-5]
Result: 100

Query: And what about the molecule Cn1c(C(F)(F)F)cc(=O)n(-c2ccc(Cl)c3nc(C(C)(C)C)oc23)c1=S [Compound 1-4] ?
Result: 90

Query: Can you handle Cc1cc2c(-n3c(=O)cc(C(F)(F)F)n(C)c3=S)c(F)cc(Cl)c2o1 [Compound 2-2] next?
Result: 100

---

Kindly supply the reported Pre-emerge Herbicidal Activity AMBEL values for the records listed here.
# System: common ragweed (Ambrosia artemisiifolia L., AMBEL)
# assay-remarks: Pre-emerge herbicidal activity, greenhouse screen, AMBEL
# Assay type: in vivo
# reported-conditions: 63 g ai/ha, rating 0-100 (0 no damage, 100 complete death), 14 days after application
// return just the number, without any unit appended

Query: Need Pre-emerge Herbicidal Activity AMBEL of Cn1c(C(F)(F)F)cc(=O)n(-c2c(F)ccc3nc(C(C)(C)C)oc23)c1=S [Compound 1-5] , thanks.
Result: 99

Query: // repeat for Cc1nc2c(Cl)cc(F)c(-n3c(=O)cc(C(F)(F)F)n(C)c3=S)c2o1 [Compound 1-2] and report
Result: 100

Query: Same question for Cn1c(C(F)(F)F)cc(=O)n(-c2c(F)cc(Cl)c3nc(C(C)(C)C)oc23)c1=S [Compound 1-3] please.
Result: 99

Query: Moving on to Cn1c(C(F)(F)F)cc(=O)n(-c2ccc(Cl)c3nc(C(C)(C)C)oc23)c1=S [Compound 1-4]
Result: 80

Query: Now consider Cn1c(C(F)(F)F)cc(=O)n(-c2c(F)cc(Cl)c3ncoc23)c1=S [Compound 1-1] .
Result: 100

Query: Same thing, different compound: Cc1cc2c(-n3c(=O)cc(C(F)(F)F)n(C)c3=S)c(F)cc(Cl)c2o1 [Compound 2-2]
Result: 100
